Target: T1, CD123-Fc (Sino Biological) (human, UniProt P26951 19-305)
T1 construct: Bought reagent; not shown: Fc part of the bought fusion (detected with anti-human Fc HRP)
T1 sequence: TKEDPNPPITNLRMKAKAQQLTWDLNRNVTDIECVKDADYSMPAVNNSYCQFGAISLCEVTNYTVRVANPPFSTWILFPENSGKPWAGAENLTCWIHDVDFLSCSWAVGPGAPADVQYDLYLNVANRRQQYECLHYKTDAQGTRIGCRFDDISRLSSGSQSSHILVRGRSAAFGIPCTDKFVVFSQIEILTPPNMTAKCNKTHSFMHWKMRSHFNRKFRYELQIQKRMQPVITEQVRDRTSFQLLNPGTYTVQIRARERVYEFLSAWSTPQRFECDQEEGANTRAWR
Assay: ELISA, serial dilution of MBP fusion normalized for protein concentration; readout CD123-Fc Binding (A450)
Under this convention, 1 denotes EC50 strictly below 4 ng/mL and 0 denotes EC50 at or above 4 ng/mL.

BINDER: 5B7L D domain as MBP fusion (designed binder, not shown: limits, linker and position relative to the D dom) MGSWIEFNMRLDAIYERLVALGGSEAELAAFEKEIAAFESELQAYKGKGNPEVEWLRKVAANIRLELQAYRHN
CLASS: 1
//
BINDER: 8W9C D domain as MBP fusion (designed binder, Expressed in E. coli and assayed from leak-out supernatant; also called wild-type (8W9C); parental 8W9C; not shown: limits, linker and position relative to the D dom) MGSWDEFGRRLYAIEWRLYALGGSEAELAAFEKEIAAFESELQAYKGKGNPEVEKLREIAAVIRSNLQAYRHN
CLASS: 0
//
BINDER: 4H2H D domain as MBP fusion (designed binder, not shown: large carriers; small tags and cut ends, also called 8W9C (K48I, K55N)) MGSWDEFGRRLYAIEWRLYALGGSEAELAAFEKEIAAFESELQAYKGIGNPEVENLREIAAVIRSNLQAYRHN
CLASS: 0
//
BINDER: 5S5W D domain as MBP fusion (designed binder, not shown: limits, linker and position relative to the D dom) MGSWSEFNMRLDAIYERLTALGGSEAELAAFEKEIAAFESELQAYKGKGNPEVEWLRHSAARIRLELQAYRHN
CLASS: 0
//
BINDER: 6Z5E D domain as MBP fusion (designed binder, not shown: large carriers; small tags and cut ends, also called 8W9C (N50S)) MGSWDEFGRRLYAIEWRLYALGGSEAELAAFEKEIAAFESELQAYKGKGSPEVEKLREIAAVIRSNLQAYRHN
CLASS: 1

Where do the numbers come from? From patent US20230250185A1.
